Tested on: 253994-281-T-J1-PDC KRAS-mutant spheroids with HUVEC/MSC, viability;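 also: spheroids exposed to agents for seven days before readout; percent of DMSO vehicle control viability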
ASSAY OVERVIEW: Anticancer human tumor 253994-281-T-J1-PDC patient-derived colorectal carcinoma cell line growth inhibition [KRAS2]
TEST CONDITIONS: second compound 0.316 µM; first compound 10 µM; hits give low values

| COMPOUND | viability, T/C [%] |
| --- | --- |
| CCNC(=O)CC1N=C(c2ccc(Cl)cc2)c2cc(OC)ccc2-n2c(C)nnc21 (stereo not drawn) + CNCc1ccccc1-c1csc(C(C)Nc2nc(C)nc3cc(OC)c(OC)cc23)c1 | 78.1 |
| CCNC(=O)CC1N=C(c2ccc(Cl)cc2)c2cc(OC)ccc2-n2c(C)nnc21 (stereo not drawn) + C=CC(=O)N1CCN(c2nc(=O)n(-c3c(C)ccnc3C(C)C)c3nc(-c4c(O)cccc4F)c(F)cc23)C(C)C1 | 78.5 |
| O=C(c1cc(Cc2n[nH]c(=O)c3ccccc23)ccc1F)N1CCN(C(=O)C2CC2)CC1 + CC1OCC2(CCN(c3cnc(Sc4ccnc(N)c4Cl)c(N)n3)CC2)C1N | 79.5 |

From: PubChem BioAssay AID1963874
